- Target Desc: Ba/F3 [EML4-ALK L1196M] (Homo sapiens, UniProt Q9UM73, L1196M, cells depend on it)
- Construct: IC50(nM) ALK[L1196M]; (Ba/F3); other: 72 hours, CellTiter-Glo; Ba/F3 [EML4-ALK L1196M]; fused on or other part: Q9HC35 (Echinoderm microtubule-associated protein-like 4)
- Sequence (Q9UM73 whole entry L1196M, the tested form may be a part): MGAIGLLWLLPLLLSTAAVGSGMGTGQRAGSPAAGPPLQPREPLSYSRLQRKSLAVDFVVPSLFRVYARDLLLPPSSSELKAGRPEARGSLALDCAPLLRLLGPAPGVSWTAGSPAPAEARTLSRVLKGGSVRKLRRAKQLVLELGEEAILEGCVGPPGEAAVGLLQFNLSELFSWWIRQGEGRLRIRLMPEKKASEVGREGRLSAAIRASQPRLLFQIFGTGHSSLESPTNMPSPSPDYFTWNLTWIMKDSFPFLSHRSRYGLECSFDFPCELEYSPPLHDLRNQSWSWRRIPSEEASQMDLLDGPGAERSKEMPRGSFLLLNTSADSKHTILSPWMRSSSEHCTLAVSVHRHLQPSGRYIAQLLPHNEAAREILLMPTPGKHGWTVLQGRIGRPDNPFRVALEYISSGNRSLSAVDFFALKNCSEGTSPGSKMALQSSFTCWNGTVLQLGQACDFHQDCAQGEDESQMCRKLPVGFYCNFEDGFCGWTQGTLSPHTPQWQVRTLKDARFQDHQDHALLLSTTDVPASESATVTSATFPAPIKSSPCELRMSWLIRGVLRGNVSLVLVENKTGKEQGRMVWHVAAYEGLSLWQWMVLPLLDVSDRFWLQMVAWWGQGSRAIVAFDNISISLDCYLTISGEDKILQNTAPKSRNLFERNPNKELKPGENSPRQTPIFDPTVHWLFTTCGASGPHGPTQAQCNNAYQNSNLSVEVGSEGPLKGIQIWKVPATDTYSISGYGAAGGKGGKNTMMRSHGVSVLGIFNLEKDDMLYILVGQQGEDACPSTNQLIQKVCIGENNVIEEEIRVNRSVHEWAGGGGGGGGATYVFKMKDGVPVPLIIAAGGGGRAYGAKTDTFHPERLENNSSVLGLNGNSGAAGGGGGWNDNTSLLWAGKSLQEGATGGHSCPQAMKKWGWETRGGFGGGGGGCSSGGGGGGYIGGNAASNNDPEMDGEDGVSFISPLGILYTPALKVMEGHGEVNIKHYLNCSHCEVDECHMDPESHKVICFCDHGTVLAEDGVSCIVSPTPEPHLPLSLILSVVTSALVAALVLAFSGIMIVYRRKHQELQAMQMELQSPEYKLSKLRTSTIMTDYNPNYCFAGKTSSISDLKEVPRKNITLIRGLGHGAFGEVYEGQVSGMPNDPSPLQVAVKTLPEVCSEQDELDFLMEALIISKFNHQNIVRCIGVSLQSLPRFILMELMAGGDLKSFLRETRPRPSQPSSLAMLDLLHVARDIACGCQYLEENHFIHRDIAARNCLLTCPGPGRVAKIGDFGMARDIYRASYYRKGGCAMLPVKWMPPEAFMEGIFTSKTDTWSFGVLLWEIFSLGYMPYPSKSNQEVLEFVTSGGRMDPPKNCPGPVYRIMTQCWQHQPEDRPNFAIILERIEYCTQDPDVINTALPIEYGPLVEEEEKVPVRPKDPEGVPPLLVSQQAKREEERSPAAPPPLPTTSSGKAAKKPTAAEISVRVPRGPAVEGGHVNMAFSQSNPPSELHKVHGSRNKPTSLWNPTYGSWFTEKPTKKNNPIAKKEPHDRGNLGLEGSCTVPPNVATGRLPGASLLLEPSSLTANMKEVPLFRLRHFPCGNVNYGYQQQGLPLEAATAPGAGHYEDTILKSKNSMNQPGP
- Procedure Details: Cytotoxicity test (CellTiter-Glo), Ba/F3 [EML4-ALK L1196M]
- Type: cell-based
- Condition Label: 72 hours, CellTiter-Glo; read-out: IC50(nM) ALK[L1196M] (Ba/F3)
Recorded GI50 values for a group of compounds are listed next.

See these solved cases before continuing.
Could you tell me which GI50 is on file for CN1CCN(c2ccc(Nc3ncc(Cl)c(Nc4ccccc4P(C)(C)=O)n3)c(OCC(F)(F)F)n2)CC1 ?
100 to 400 nM

Please do the same for COc1nc(N(C)CCN(C)C)ccc1Nc1ncc(Cl)c(Nc2ccccc2P(C)(C)=O)n1 as well.
50 to 100 nM

Please do the same for CC(C)Oc1nc(N2CCC(N3CCN(C)CC3)CC2)ccc1Nc1ncc(Cl)c(Nc2ccccc2P(C)(C)=O)n1 as well.
100 to 400 nM

Please examine the following record next.
Could you tell me which GI50 is on file for CN(C)CCN(C)c1ccc(Nc2ncc(Cl)c(Nc3ccccc3P(C)(C)=O)n2)c(OCC(F)(F)F)n1 ?
100 to 400 nM

---

- Target Desc: ALK [WT] (Homo sapiens, UniProt Q9UM73)
- Sequence (Q9UM73 19-1620): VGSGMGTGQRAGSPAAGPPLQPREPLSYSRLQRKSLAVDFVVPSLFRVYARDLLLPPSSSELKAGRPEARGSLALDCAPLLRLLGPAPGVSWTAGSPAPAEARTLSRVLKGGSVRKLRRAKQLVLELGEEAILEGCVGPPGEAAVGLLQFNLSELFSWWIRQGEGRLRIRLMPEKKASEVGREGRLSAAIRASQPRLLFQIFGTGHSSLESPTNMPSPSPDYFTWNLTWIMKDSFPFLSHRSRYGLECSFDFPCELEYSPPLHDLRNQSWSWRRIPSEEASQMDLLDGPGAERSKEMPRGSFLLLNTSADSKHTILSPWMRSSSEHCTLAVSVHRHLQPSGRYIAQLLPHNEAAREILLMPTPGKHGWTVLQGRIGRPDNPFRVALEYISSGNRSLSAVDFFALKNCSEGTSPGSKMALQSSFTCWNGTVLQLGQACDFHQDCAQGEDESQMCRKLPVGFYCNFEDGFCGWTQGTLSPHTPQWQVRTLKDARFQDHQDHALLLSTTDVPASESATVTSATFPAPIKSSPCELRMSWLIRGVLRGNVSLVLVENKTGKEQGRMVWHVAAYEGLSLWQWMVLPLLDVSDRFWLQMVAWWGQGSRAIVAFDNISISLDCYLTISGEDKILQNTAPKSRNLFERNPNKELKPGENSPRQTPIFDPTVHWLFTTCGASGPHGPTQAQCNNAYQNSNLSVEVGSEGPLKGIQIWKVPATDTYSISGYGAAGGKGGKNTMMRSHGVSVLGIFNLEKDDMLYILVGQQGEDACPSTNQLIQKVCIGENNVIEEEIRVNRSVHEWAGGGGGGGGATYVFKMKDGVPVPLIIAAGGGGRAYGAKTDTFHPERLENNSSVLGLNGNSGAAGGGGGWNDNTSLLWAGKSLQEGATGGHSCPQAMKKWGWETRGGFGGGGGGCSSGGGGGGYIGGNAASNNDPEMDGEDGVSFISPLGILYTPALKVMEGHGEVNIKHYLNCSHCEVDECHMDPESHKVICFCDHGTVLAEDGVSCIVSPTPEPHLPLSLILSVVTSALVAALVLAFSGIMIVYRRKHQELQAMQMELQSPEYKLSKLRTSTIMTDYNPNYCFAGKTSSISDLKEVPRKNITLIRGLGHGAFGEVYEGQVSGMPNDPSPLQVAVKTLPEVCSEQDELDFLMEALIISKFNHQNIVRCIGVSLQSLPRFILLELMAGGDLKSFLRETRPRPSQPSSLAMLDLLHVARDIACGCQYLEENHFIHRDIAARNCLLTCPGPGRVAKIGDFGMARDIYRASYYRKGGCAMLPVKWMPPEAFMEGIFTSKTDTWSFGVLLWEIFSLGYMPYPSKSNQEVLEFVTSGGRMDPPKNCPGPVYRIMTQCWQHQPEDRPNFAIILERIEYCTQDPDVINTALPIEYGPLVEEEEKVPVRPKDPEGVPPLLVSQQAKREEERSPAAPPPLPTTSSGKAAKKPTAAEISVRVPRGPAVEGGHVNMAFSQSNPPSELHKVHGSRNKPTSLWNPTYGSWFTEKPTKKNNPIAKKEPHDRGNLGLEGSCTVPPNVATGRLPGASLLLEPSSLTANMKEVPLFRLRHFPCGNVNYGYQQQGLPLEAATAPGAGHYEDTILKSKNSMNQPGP
- Procedure Details: Kinase inhibition assay, ALK [WT]
- Format: biochemical
Experimental Endpoint: IC50

See these solved cases before continuing.
Could you tell me which IC50 is on file for COc1nc(N2CCN(C)CC2)ccc1Nc1nc(Nc2ccccc2P(C)(C)=O)c2cc[nH]c2n1 [Example 14] ?
≤ 5 nM

Please do the same for COc1nc(N2CCC(N(C)C)CC2)ccc1Nc1nc(Nc2ccccc2P(C)(C)=O)c2cc[nH]c2n1 [Example 13] as well.
5 to 10 nM

Please do the same for CN(C)CCN(C)c1ccc(Nc2ncc(Cl)c(Nc3ccccc3P(C)(C)=O)n2)c(OCC(F)(F)F)n1 [Example 11] as well.
≤ 5 nM

Others:
Could you tell me which IC50 is on file for CC(C)Oc1nc(N(C)CCN(C)C)ccc1Nc1ncc(Cl)c(Nc2ccccc2P(C)(C)=O)n1 [Example 7] ?
10 to 50 nM

---

Recorded GI50 values for a group of compounds are listed next.
- Target Desc: Ba/F3 [EML4-ALK L1196M] (Homo sapiens, UniProt Q9UM73, L1196M, cells depend on it)
- Construct: IC50(nM) ALK[L1196M]; (Ba/F3); other: 72 hours, CellTiter-Glo; Ba/F3 [EML4-ALK L1196M]; fused on or other part: Q9HC35 (Echinoderm microtubule-associated protein-like 4)
- Procedure Details: Cytotoxicity test (CellTiter-Glo), Ba/F3 [EML4-ALK L1196M]
- Type: cell-based
- Condition Label: 72 hours, CellTiter-Glo; read-out: IC50(nM) ALK[L1196M] (Ba/F3)

See these solved cases before continuing.
Could you tell me which GI50 is on file for COc1nc(N2CCN(C)CC2)ccc1Nc1ncc(Cl)c(Nc2ccccc2P(C)(C)=O)n1 ?
50 to 100 nM

Please do the same for CN(C)CCc1ccc(Nc2ncc(Cl)c(Nc3ccccc3P(C)(C)=O)n2)c(OCC(F)(F)F)n1 as well.
100 to 400 nM

Please do the same for CC(C)Oc1nc(N2CCN(C)CC2)ccc1Nc1ncc(Cl)c(Nc2ccccc2P(C)(C)=O)n1 as well.
100 to 400 nM

Please do the same for COc1nc(N(C)CCN(C)C)ccc1Nc1nc(Nc2ccccc2P(C)(C)=O)c2cc[nH]c2n1 as well.
50 to 100 nM

Please do the same for COc1nc(N2CCC(N(C)C)CC2)ccc1Nc1nc(Nc2ccccc2P(C)(C)=O)c2cc[nH]c2n1 as well.
50 to 100 nM

Others:
Could you tell me which GI50 is on file for COc1nc(N2CCC(N3CCN(C)CC3)CC2)ccc1Nc1ncc(Cl)c(Nc2ccccc2P(C)(C)=O)n1 ?
50 to 100 nM

Please do the same for CNCCc1ccc(Nc2ncc(Cl)c(Nc3ccccc3P(C)(C)=O)n2)c(OCC(F)(F)F)n1 as well.
100 to 400 nM

Please do the same for CC(C)Oc1nc(N2CCC(N(C)C)CC2)ccc1Nc1ncc(Cl)c(Nc2ccccc2P(C)(C)=O)n1 as well.
50 to 100 nM

---

- Target Desc: ALK [L1196M] (Homo sapiens, UniProt Q9UM73, L1196M)
- Sequence (Q9UM73 19-1620 L1196M): as the sequence (Q9UM73 19-1620) above, with L1178M counted along it
- Procedure Details: Kinase inhibition assay, ALK [L1196M]
- Type: biochemical
Experimental Endpoint: IC50

Could you tell me which IC50 is on file for CC(C)Oc1nc(N2CCN(C)CC2)ccc1Nc1ncc(Cl)c(Nc2ccccc2P(C)(C)=O)n1 [Example 6] ?
≤ 5 nM

Please do the same for CP(C)(=O)c1ccccc1Nc1nc(Nc2ccc(CCN)nc2OCC(F)(F)F)ncc1Cl [Example 17] as well.
50 to 100 nM

Others:
Could you tell me which IC50 is on file for CN(C)CCN(C)c1ccc(Nc2ncc(Cl)c(Nc3ccccc3P(C)(C)=O)n2)c(OCC(F)(F)F)n1 [Example 11] ?
10 to 50 nM

Please do the same for CC(C)Oc1nc(N(C)CCN(C)C)ccc1Nc1ncc(Cl)c(Nc2ccccc2P(C)(C)=O)n1 [Example 7] as well.
5 to 10 nM

Please do the same for COc1nc(N2CCN(C)CC2)ccc1Nc1nc(Nc2ccccc2P(C)(C)=O)c2cc[nH]c2n1 [Example 14] as well.
≤ 5 nM

Please do the same for COc1nc(N2CCC(N3CCN(C)CC3)CC2)ccc1Nc1ncc(Cl)c(Nc2ccccc2P(C)(C)=O)n1 [Example 4] as well.
5 to 10 nM

Please do the same for CN1CCN(C2CCN(c3ccc(Nc4ncc(Cl)c(Nc5ccccc5P(C)(C)=O)n4)c(OCC(F)(F)F)n3)CC2)CC1 [Example 12] as well.
10 to 50 nM

Please do the same for COc1nc(N(C)CCN(C)C)ccc1Nc1ncc(Cl)c(Nc2ccccc2P(C)(C)=O)n1 [Example 3] as well.
5 to 10 nM

Please do the same for CNCCc1ccc(Nc2ncc(Cl)c(Nc3ccccc3P(C)(C)=O)n2)c(OCC(F)(F)F)n1 [Example 18] as well.
50 to 100 nM

Please do the same for COc1nc(N2CCC(N3CCN(C)CC3)CC2)ccc1Nc1nc(Nc2ccccc2P(C)(C)=O)c2cc[nH]c2n1 [Example 16] as well.
5 to 10 nM

Please do the same for COc1nc(N2CCN(C)CC2)ccc1Nc1ncc(Cl)c(Nc2ccccc2P(C)(C)=O)n1 [Example 2] as well.
≤ 5 nM

Please do the same for CC(C)Oc1nc(N2CCC(N3CCN(C)CC3)CC2)ccc1Nc1ncc(Cl)c(Nc2ccccc2P(C)(C)=O)n1 [Example 8] as well.
5 to 10 nM

Please do the same for COc1nc(N2CCC(N(C)C)CC2)ccc1Nc1ncc(Cl)c(Nc2ccccc2P(C)(C)=O)n1 [Example 1] as well.
5 to 10 nM

Please do the same for CN(C)CCc1ccc(Nc2ncc(Cl)c(Nc3ccccc3P(C)(C)=O)n2)c(OCC(F)(F)F)n1 [Example 19] as well.
50 to 100 nM

Please do the same for COc1nc(N(C)CCN(C)C)ccc1Nc1nc(Nc2ccccc2P(C)(C)=O)c2cc[nH]c2n1 [Example 15] as well.
≤ 5 nM

Please do the same for CN1CCN(c2ccc(Nc3ncc(Cl)c(Nc4ccccc4P(C)(C)=O)n3)c(OCC(F)(F)F)n2)CC1 [Example 10] as well.
5 to 10 nM

Please do the same for CN(C)C1CCN(c2ccc(Nc3ncc(Cl)c(Nc4ccccc4P(C)(C)=O)n3)c(OCC(F)(F)F)n2)CC1 [Example 9] as well.
5 to 10 nM

Please do the same for COc1nc(N2CCC(N(C)C)CC2)ccc1Nc1nc(Nc2ccccc2P(C)(C)=O)c2cc[nH]c2n1 [Example 13] as well.
≤ 5 nM

Please do the same for CC(C)Oc1nc(N2CCC(N(C)C)CC2)ccc1Nc1ncc(Cl)c(Nc2ccccc2P(C)(C)=O)n1 [Example 5] as well.
≤ 5 nM

---

Recorded Selectivity parental/ALK values for a group of compounds are listed next.
- Tested on: Ba/F3 [EML4-ALK]
- Procedure Details: Cytotoxicity test (CellTiter-Glo), Ba/F3 [EML4-ALK]
- Format: cell-based
- Condition Label: ratio of Ba/F3 IC50 values

See these solved cases before continuing.
Could you tell me which Selectivity parental/ALK is on file for CP(C)(=O)c1ccccc1Nc1nc(Nc2ccc(CCN)nc2OCC(F)(F)F)ncc1Cl ?
50~100

Please do the same for COc1nc(N(C)CCN(C)C)ccc1Nc1nc(Nc2ccccc2P(C)(C)=O)c2cc[nH]c2n1 as well.
50~100

Please do the same for CN(C)CCN(C)c1ccc(Nc2ncc(Cl)c(Nc3ccccc3P(C)(C)=O)n2)c(OCC(F)(F)F)n1 as well.
100~200

Others:
Could you tell me which Selectivity parental/ALK is on file for CC(C)Oc1nc(N(C)CCN(C)C)ccc1Nc1ncc(Cl)c(Nc2ccccc2P(C)(C)=O)n1 ?
200~400

Data provenance is patent US20210009613A1.
